Test system: Canis familiaris
assay details: Antihypertensive activity against angiotensin II-induced pressor response in conscious normotensive Beagle dog assessed as decrease in basal heart rate at 2.13 mg/kg, po after 1 hr
Assay type: functional, organism-based
Design: dose 2.13 mg/kg
test context: Canis lupus familiaris
Activity calls are given as the source filed them. The calls are words filed in the database; no cut-off is given here.
Outcome codes: 1 (yes) (active), 0 (no) (inactive)

| cpd smiles | class |
| --- | --- |
| CCCc1nc2c(C)cc(-c3nc4ccccc4n3C)cc2n1Cc1ccc(-c2ccccc2C2=NCCN2)cc1 | 1 (yes) |
| CCCc1nc2c(C)cc(-c3nc4ccccc4n3C)cc2n1Cc1ccc(-c2ccccc2-c2ncc(Cl)[nH]2)cc1 | 1 (yes) |
| CCCc1nc2c(C)cc(-c3nc4ccccc4n3C)cc2n1Cc1ccc(-c2ccccc2-c2ncn[nH]2)cc1 | 0 (no) |
| CCCc1nc2c(C)cc(-c3nc4ccccc4n3C)cc2n1Cc1ccc(-c2ccccc2-c2ncc[nH]2)cc1 | 1 (yes) |
